- Test system: N. gonorrhoeae WHO Z
- measurement.description: Liquid broth MIC in Fastidious broth
- conditions.used: Neisseria gonorrhoeae, read-out: Minimum Inhibitory Concentration, WHO Z
Items are presented alongside their recorded MIC.

{"columns": ["compound", "MIC"],
 "data": [
  ["O=C(NCCN1CCN(C(=O)NC(C(=O)N[C@H]2Cc3ccc(F)c(C(=O)O)c3OB2O)c2cc(F)c(O)c(O)c2Cl)C1=O)Nc1cccc(O)c1 (stereo partly drawn)", "16 to 32 µg/mL"],
  ["O=C(NCCN1CCN(C(=O)NC(C(=O)N[C@H]2Cc3ccc(F)c(C(=O)O)c3OB2O)c2cc(F)c(O)c(O)c2Cl)C1=O)c1nccs1 (stereo partly drawn)", "16 to 32 µg/mL"],
  ["O=C(NCCCS(=O)(=O)N1CCN(C(=O)N[C@H](C(=O)N[C@H]2Cc3ccc(F)c(C(=O)O)c3OB2O)c2cc(F)c(O)c(O)c2Cl)C1=O)c1cccc(O)c1", "> 64 µg/mL"],
  ["O=C(NCCS(=O)(=O)N1CCN(C(=O)NC(C(=O)N[C@H]2Cc3ccc(F)c(C(=O)O)c3OB2O)c2cc(F)c(O)c(O)c2Cl)C1=O)c1ccncc1 (stereo partly drawn)", "4 to 8 µg/mL"],
  ["O=C(NCCCN1CCN(C(=O)NC(C(=O)N[C@H]2Cc3ccc(F)c(C(=O)O)c3OB2O)c2cc(F)c(O)c(O)c2Cl)C(=O)C1=O)c1ccc(O)cc1O (stereo partly drawn)", "> 64 µg/mL"],
  ["O=C(NCCCN1CCN(C(=O)NC(C(=O)N[C@H]2Cc3ccc(F)c(C(=O)O)c3OB2O)c2cc(F)c(O)c(O)c2Cl)C1=O)Nc1ccncc1 (stereo partly drawn)", "> 64 µg/mL"]
]}

###

- Tested on: N. gonorrhoeae ATCC 49226
- measurement.description: Liquid broth MIC in Fastidious broth
- conditions.used: Neisseria gonorrhoeae, ATCC49226, read-out: Minimum Inhibitory Concentration, ATCC 49226
Items are presented alongside their recorded MIC.

{"columns": ["compound", "target.desc", "MIC"],
 "data": [
  ["O=C(NCCN1CCN(C(=O)NC(C(=O)N[C@H]2Cc3ccc(F)c(C(=O)O)c3OB2O)c2cc(F)c(O)c(O)c2Cl)C1=O)c1nccs1 (some centres unmarked) [Example 247]", "N. gonorrhoeae ATCC 49226", "16 to 32 µg/mL"],
  ["O=C(NCCCS(=O)(=O)N1CCN(C(=O)NC(C(=O)N[C@H]2Cc3ccc(F)c(C(=O)O)c3OB2O)c2cc(F)c(O)c(O)c2Cl)C1=O)c1ccncc1 (some centres unmarked) [Example 272]", "N. gonorrhoeae ATCC 49226", "16 to 32 µg/mL"],
  ["O=C(NCCS(=O)(=O)N1CCN(C(=O)N[C@H](C(=O)N[C@H]2Cc3ccc(F)c(C(=O)O)c3OB2O)c2cc(F)c(O)c(O)c2Cl)C1=O)c1ccc(O)cc1 [Example 286]", "N. gonorrhoeae ATCC 49226", "> 64 µg/mL"],
  ["O=C(NCCCN1CCN(C(=O)N[C@H](C(=O)N[C@H]2Cc3ccc(F)c(C(=O)O)c3OB2O)c2cc(F)c(O)c(O)c2Cl)C(=O)C1=O)c1cccc(O)c1Cl [Example 302]", "N. gonorrhoeae ATCC 49226", "> 64 µg/mL"],
  ["O=C(NCCN1CCN(C(=O)NC(C(=O)N[C@H]2Cc3ccc(F)c(C(=O)O)c3OB2O)c2cc(F)c(O)c(O)c2Cl)C1=O)Nc1cccc(O)c1 (some centres unmarked) [Example 249]", "N. gonorrhoeae ATCC 49226", "16 to 32 µg/mL"],
  ["O=C(NCCS(=O)(=O)N1CCN(C(=O)N[C@H](C(=O)N[C@H]2Cc3ccc(F)c(C(=O)O)c3OB2O)c2cc(F)c(O)c(O)c2Cl)C1=O)c1nccs1 [Example 263]", "N. gonorrhoeae ATCC 49226", "> 64 µg/mL"],
  ["O=C(NCCS(=O)(=O)N1CCN(C(=O)NC(C(=O)N[C@H]2Cc3ccc(F)c(C(=O)O)c3OB2O)c2cc(F)c(O)c(O)c2Cl)C1=O)Nc1cccc(O)c1 (some centres unmarked) [Example 266]", "N. gonorrhoeae ATCC 49226", "16 to 32 µg/mL"],
  ["O=C(NCCCN1CCN(C(=O)NC(C(=O)N[C@H]2Cc3ccc(F)c(C(=O)O)c3OB2O)c2cc(F)c(O)c(O)c2Cl)C(=O)C1=O)c1ccncc1Cl (some centres unmarked) [Example 295]", "N. gonorrhoeae ATCC 49226", "16 to 32 µg/mL"],
  ["O=C(NCCN1CCN(C(=O)NC(C(=O)N[C@H]2Cc3ccc(F)c(C(=O)O)c3OB2O)c2cc(F)c(O)c(O)c2Cl)C1=O)Nc1ccncc1 (some centres unmarked) [Example 250]", "N. gonorrhoeae ATCC 49226", "> 64 µg/mL"],
  ["O=C(NCCS(=O)(=O)N1CCN(C(=O)N[C@@H](C(=O)N[C@H]2Cc3ccc(F)c(C(=O)O)c3OB2O)c2cc(F)c(O)c(O)c2Cl)C1=O)Nc1ccncc1 [Example 290]", "N. gonorrhoeae ATCC 49226", "16 to 32 µg/mL"],
  ["O=C(NCCS(=O)(=O)N1CCN(C(=O)N[C@@H](C(=O)N[C@H]2Cc3ccc(F)c(C(=O)O)c3OB2O)c2cc(F)c(O)c(O)c2Cl)C1=O)c1ccc(O)cc1 [Example 287]", "N. gonorrhoeae ATCC 49226", "4 to 8 µg/mL"]
]}

###

Items are presented alongside their recorded pEC50.
- target.desc: PBP3 from Escherichia coli (K-12) (Escherichia coli, UniProt P0AD68)
- Construct: made in house
- Sequence (P0AD68 1-577): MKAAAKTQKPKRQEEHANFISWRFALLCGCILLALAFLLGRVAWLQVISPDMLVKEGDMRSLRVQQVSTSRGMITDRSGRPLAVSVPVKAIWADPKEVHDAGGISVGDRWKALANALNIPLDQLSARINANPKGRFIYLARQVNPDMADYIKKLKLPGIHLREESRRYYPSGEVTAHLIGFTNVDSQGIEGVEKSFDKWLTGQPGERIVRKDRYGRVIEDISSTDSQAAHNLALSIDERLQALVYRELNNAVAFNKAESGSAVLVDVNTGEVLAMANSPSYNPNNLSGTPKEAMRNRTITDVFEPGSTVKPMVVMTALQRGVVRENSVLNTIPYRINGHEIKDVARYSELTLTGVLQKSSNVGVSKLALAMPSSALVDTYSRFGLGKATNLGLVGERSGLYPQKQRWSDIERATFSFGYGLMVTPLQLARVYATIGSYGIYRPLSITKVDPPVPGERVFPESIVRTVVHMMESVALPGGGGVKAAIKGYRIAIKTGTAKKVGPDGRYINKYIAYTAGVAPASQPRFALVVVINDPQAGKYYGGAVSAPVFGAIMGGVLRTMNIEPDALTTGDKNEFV
- measurement.description: Bocillin-FL fluorescence polarization competition binding, E. coli PBP3
pEC50: −log10 of the molar value.

{"columns": ["compound", "pEC50"],
 "data": [
  ["O=C(NCCCS(=O)(=O)N1CCN(C(=O)NC(C(=O)N[C@H]2Cc3ccc(F)c(C(=O)O)c3OB2O)c2cc(F)c(O)c(O)c2Cl)C1=O)c1cccnc1 (stereo partly drawn)", "> 5.00"],
  ["O=C(N[C@@H](C(=O)N[C@H]1Cc2cccc(C(=O)O)c2OB1O)c1ccc(P(=O)(O)O)cc1)c1ccc(O)c(O)c1Cl", "< 3.60"],
  ["CS(=O)(=O)NC(C(=O)N[C@H]1Cc2cccc(C(=O)O)c2OB1O)c1ccc(P(=O)(O)O)cc1 (stereo partly drawn)", "< 3.60"],
  ["NCCN1CCN(C(=O)NC(C(=O)N[C@H]2Cc3cccc(C(=O)O)c3OB2O)c2ccc(P(=O)(O)O)cc2)C(=O)C1=O (stereo partly drawn)", "4.30 to 5.00"],
  ["O=C(NCCCN1CCN(C(=O)N[C@@H](C(=O)N[C@H]2Cc3ccc(F)c(C(=O)O)c3OB2O)c2cc(F)c(O)c(O)c2Cl)C1=O)Nc1ccc(O)cc1", "4.30 to 5.00"],
  ["O=C(NCCCN1CCN(C(=O)N[C@@H](C(=O)N[C@H]2Cc3ccc(F)c(C(=O)O)c3OB2O)c2cc(F)c(O)c(O)c2Cl)C(=O)C1=O)c1cc(F)c(O)c(F)c1", "> 5.00"]
]}

###

Items are presented alongside their recorded MIC.
- Test system: N. gonorrhoeae FA1090
- measurement.description: Liquid broth MIC in Fastidious broth
- conditions.used: Neisseria gonorrhoeae, FA1090, read-out: Minimum Inhibitory Concentration (MIC), N. gonorrhoeae FA 1090
experimental.endpoint: MIC

{"columns": ["molecule", "experimental.endpoint", "result"],
 "data": [
  ["O=C(NCCN1CCN(C(=O)NC(C(=O)N[C@H]2Cc3ccc(F)c(C(=O)O)c3OB2O)c2cc(F)c(O)c(O)c2Cl)C(=O)C1=O)c1cccnc1 (some centres unmarked)", "MIC", "1 to 2 µg/mL"],
  ["CN(CCN1CCN(C(=O)NC(C(=O)N[C@H]2Cc3ccc(F)c(C(=O)O)c3OB2O)c2cc(F)c(O)c(O)c2Cl)C(=O)C1=O)S(=O)(=O)c1ccc(C(N)=O)cc1 (some centres unmarked)", "MIC", "4 to 8 µg/mL"],
  ["O=C(NCCCN1CCN(C(=O)NC(C(=O)N[C@H]2Cc3ccc(F)c(C(=O)O)c3OB2O)c2cc(F)c(O)c(O)c2Cl)C(=O)C1=O)Nc1ccncc1 (some centres unmarked)", "MIC", "1 to 2 µg/mL"],
  ["O=C(O)c1cccc2c1OB(O)[C@@H](NC(=O)[C@@H](NC(=O)N1CCNC1=O)c1ccc(P(=O)(O)O)cc1)C2", "MIC", "< 1 µg/mL"],
  ["O=C(O)c1cccc2c1OB(O)[C@@H](NC(=O)[C@@H](NC(=O)c1cnc3sccn3c1=O)c1ccc(P(=O)(O)O)cc1)C2 (single isomer, unassigned)", "MIC", "1 to 2 µg/mL"],
  ["N[C@@H](C(=O)N[C@H]1Cc2cccc(C(=O)O)c2OB1O)c1ccc(P(=O)(O)O)cc1 (single isomer, unassigned)", "MIC", "> 64 µg/mL"],
  ["O=C(NCCN1CCN(C(=O)NC(C(=O)N[C@H]2Cc3ccc(F)c(C(=O)O)c3OB2O)c2cc(F)c(O)c(O)c2Cl)C1=O)c1ccncc1 (some centres unmarked)", "MIC", "4 to 8 µg/mL"],
  ["O=C(O)c1c(F)ccc2c1OB(O)[C@@H](NC(=O)C(NC(=O)N1CCN(Cc3ccc(O)c(O)c3Cl)C(=O)C1=O)c1ccc(P(=O)(O)O)c(F)c1)C2 (some centres unmarked)", "MIC", "< 1 µg/mL"],
  ["O=C(O)c1cccc2c1OB(O)[C@@H](NC(=O)C(NC(=O)C1CC1)c1ccc(P(=O)(O)O)cc1)C2 (some centres unmarked)", "MIC", "4 to 8 µg/mL"],
  ["O=C(N[C@@H](C(=O)N[C@H]1Cc2cccc(C(=O)O)c2OB1O)c1ccc(P(=O)(O)O)cc1)c1ccc(C(F)(F)F)cn1 (single isomer, unassigned)", "MIC", "< 1 µg/mL"],
  ["CS(=O)(=O)N1CCN(C(=O)N[C@@H](C(=O)N[C@H]2Cc3cccc(C(=O)O)c3OB2O)c2ccc(P(=O)(O)O)c(F)c2F)C1=O (single isomer, unassigned)", "MIC", "< 1 µg/mL"]
]}
